Could you please report measured Decomposition efficiency of glycitin family in soymilk for the items listed next?
System: Crude diglycosidase
test_name: Examination of pH in the conversion into isoflavone aglycons by diglycosidase using soybean materials
Type: biochemical, Penicillium multicolor IAM7153
condition_details: pH7.2, heat treatment of enzyme yes, reaction time 6 h, 55° C.
Reply with just the number.

Endpoint output: Decomposition efficiency of glycitin family in soymilk of `COc1cc2c(=O)c(-c3ccc(O)cc3)coc2cc1O[C@@H]1O[C@H](COC(=O)CC(=O)O)[C@@H](O)[C@H](O)[C@H]1O` . Value? 37.5

`COc1cc2c(=O)c(-c3ccc(O)cc3)coc2cc1O` ? 5.6

Follow-up item: `COc1cc2c(=O)c(-c3ccc(O)cc3)coc2cc1O[C@@H]1O[C@H](CO)[C@@H](O)[C@H](O)[C@H]1O` 56.9

###

Task for the reader: assign each of the following compounds its reported Decomposition efficiency: ratio of each glycoside/aglycon within its isoflavone family.
Test system: Crude diglycosidase
test_name: Examination of substrate concentration in the conversion into isoflavone aglycons by diglycosidase using soybean materials;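 also: percent of the isoflavone family total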
Format: biochemical, Penicillium multicolor IAM7153
condition_details: roasted soy flour, substrate concentration 30%, heat treatment of enzyme no, reaction time 3 h
Provide only the numeric value, understood in %.

What value of Decomposition efficiency: ratio of each glycoside/aglycon within its isoflavone family has been reported for the following compound? O=c1c(-c2ccc(O)cc2)coc2cc(O[C@@H]3O[C@H](CO)[C@@H](O)[C@H](O)[C@H]3O)cc(O)c12 [genistin] 9.6

Please give the result for COc1cc2c(=O)c(-c3ccc(O)cc3)coc2cc1O [glycitein] too. 75.6

Then what about the compound CC(=O)OC[C@H]1O[C@@H](Oc2ccc3c(=O)c(-c4ccc(O)cc4)coc3c2)[C@H](O)[C@@H](O)[C@@H]1O [acetyldaidzin, 6″-O-acetyldaidzin] ? 42.6

Proceed to COc1cc2c(=O)c(-c3ccc(O)cc3)coc2cc1O[C@@H]1O[C@H](COC(C)=O)[C@@H](O)[C@H](O)[C@H]1O [acetylglycitin, 6″-O-acetylglycitin] 24.4

Another: CC(=O)OC[C@H]1O[C@@H](Oc2cc(O)c3c(=O)c(-c4ccc(O)cc4)coc3c2)[C@H](O)[C@@H](O)[C@@H]1O [acetylgenistin, 6″-O-acetylgenistin] 41.4

###

So I've got a bunch of molecules here, and I need their Decomposition efficiency of daidzin family in defatted soybean values.
System: Crude diglycosidase
test_name: Examination of temperature in the conversion into isoflavone aglycons by diglycosidase using soybean materials
Format: biochemical, Penicillium multicolor IAM7153
Parameters: concentration or dose not given beside the values
condition_details: 55° C., heat treatment of enzyme no, reaction time 0 h
Method: Into 400 μL of 20 mM acetate buffer of pH 4.0 was suspended 50 mg of each of various soybean materials (roasted soy flour (manufactured by Fuji Shokuryo K.K.), soymilk (manufactured by Gitoh Shokuhin K.K.), defatted soybean (manufactured by Fuji Seiyu K.K.), concentrated soybean protein (manufactured by Fuji Seiyu K.K.)), whereby a substrate solution was prepared. Crude diglycosidase was diluted with 20 mM acetate buffer of pH 4.0 to be the glycosidase activity of 1.88 AU/mL. […]
Value expressed in %; do not type the unit.

Requested field: Decomposition efficiency of daidzin family in defatted soybean. Item: `O=C(O)CC(=O)OC[C@H]1O[C@@H](Oc2ccc3c(=O)c(-c4ccc(O)cc4)coc3c2)[C@H](O)[C@@H](O)[C@@H]1O` 43.3

What do you have for `O=c1c(-c2ccc(O)cc2)coc2cc(O)ccc12` ? 14.5

Please give the result for `O=c1c(-c2ccc(O)cc2)coc2cc(O[C@@H]3O[C@H](CO)[C@@H](O)[C@H](O)[C@H]3O)ccc12` too. 42.2
